Kindly state apparent KD of MS2 coat protein for each of the entries shown.
- Tested on: MS2 coat protein
- protocol-text: apparent KD of MS2 coat protein; designed switch direction (-1 OFF switch, 1 ON switch): -1; higher = weaker reporter binding
- experimental-context: Eterna round: R95; input ligand: microRNA oligo, concentration not stated
One number for each entry, in nM.

>>> result_value("AAAUAACAAGCAAGAUCCUACAUGAGGAUCACCCAUGUGCUCGUCUUGUAAAGUACUAUCACGAAAGUGAUAGUACA [Sensor 3, v1 - 12] (puzzle: Sensor v3, turn-off variant 1)")
219

Look up apparent KD of MS2 coat protein for the entries below, preserving their order.
1. UUUCUGUGAGGAUAUCAGUAGUAAAUAAAUAAAAUUACUACUGAGAAGGCACAUGAGGAUCACCCAUGUUCCUU [salish99_ex3_r3_093] (puzzle: Exclusion 4)
2. AAUAACAGAGGAUAUACUGUUUUAUGUGUUUGUUAUUUUGAACAUGAGGAUCACCCAUGUAGAAGGCUGAUUGA [JMF 76] (puzzle: Exclusion 2)

13.1
46
